Target: UniProt P33535
# met = Ki below 20 nM (exclusive); not met = Ki at/above 20 nM

compound: CC(C)C[C@@H]1NC(=O)[C@H](Cc2ccccc2)NC(=O)CNC(=O)[C@H](NC(=O)[C@@H](N)Cc2ccc(O)cc2)CCCN/C(N2CCCC2)=N\CCC[C@@H](C(N)=O)NC1=O
tested.target: UniProt P33535
classification: not met
--
compound: CC(C)C[C@@H]1NC(=O)[C@H](Cc2ccccc2)NC(=O)CNC(=O)[C@H](NC(=O)[C@@H](N)Cc2ccc(O)cc2)CCCN/C(N)=N\CCC[C@@H](C(N)=O)NC1=O
tested.target: UniProt P33535
classification: met
--
compound: CC(C)C[C@@H]1NC(=O)[C@H](Cc2ccccc2)NC(=O)CNC(=O)[C@H](NC(=O)[C@@H](N)Cc2ccc(O)cc2)CCCNC(=S)NCCC[C@@H](C(N)=O)NC1=O
tested.target: UniProt P33535
classification: met
--
compound: C/N=C1/NCCC[C@@H](C(N)=O)NC(=O)[C@H](CC(C)C)NC(=O)[C@H](Cc2ccccc2)NC(=O)CNC(=O)[C@H](NC(=O)[C@@H](N)Cc2ccc(O)cc2)CCCN1
tested.target: UniProt P33535
classification: met
--
compound: CC(C)C[C@@H]1NC(=O)[C@H](Cc2ccccc2)NC(=O)CNC(=O)[C@H](NC(=O)[C@@H](N)Cc2ccc(O)cc2)CCCN/C(N(C)C)=N\CCC[C@@H](C(N)=O)NC1=O
tested.target: UniProt P33535
classification: met
--
compound: CS/C1=N/CCC[C@@H](C(N)=O)NC(=O)[C@H](CC(C)C)NC(=O)[C@H](Cc2ccccc2)NC(=O)CNC(=O)[C@H](NC(=O)[C@@H](N)Cc2ccc(O)cc2)CCCN1
tested.target: UniProt P33535
classification: not met

---

Target: Mu-type opioid receptor (Rattus norvegicus, UniProt P33535)
Sequence (P33535 whole entry): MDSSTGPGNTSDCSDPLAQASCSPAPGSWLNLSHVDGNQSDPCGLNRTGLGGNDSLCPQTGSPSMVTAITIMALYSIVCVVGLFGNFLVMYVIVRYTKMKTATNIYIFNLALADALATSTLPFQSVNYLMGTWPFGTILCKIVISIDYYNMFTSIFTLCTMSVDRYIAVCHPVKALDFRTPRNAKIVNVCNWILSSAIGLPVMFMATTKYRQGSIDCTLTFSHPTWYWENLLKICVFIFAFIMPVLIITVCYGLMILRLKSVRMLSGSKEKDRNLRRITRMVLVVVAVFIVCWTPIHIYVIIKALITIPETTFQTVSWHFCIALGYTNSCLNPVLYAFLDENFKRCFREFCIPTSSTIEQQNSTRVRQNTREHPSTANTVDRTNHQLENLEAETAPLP
Assay: Agonist activity at mu opioid receptor in rat brain membranes assessed as stimulation of [35S]GTPgammaS binding after 60 mins in presence of GDP
Assay type: functional, cell membranes
Conditions: read-out: EC50
pEC50: −log10 of the molar value.
observation.type: pEC50

compound: CC(C)C[C@@H]1NC(=O)[C@H](Cc2ccccc2)NC(=O)CNC(=O)[C@H](NC(=O)[C@@H](N)Cc2ccc(O)cc2)CCCN/C(N)=N\CCC[C@@H](C(N)=O)NC1=O
tested.target: Mu-type opioid receptor (Rattus norvegicus, UniProt P33535)
observation.type: pEC50
meas.value: 5.52
//
compound: CC(C)C[C@@H]1NC(=O)[C@H](Cc2ccccc2)NC(=O)CNC(=O)[C@H](NC(=O)[C@@H](N)Cc2ccc(O)cc2)CCCN/C(N2CCCC2)=N\CCC[C@@H](C(N)=O)NC1=O
tested.target: Mu-type opioid receptor (Rattus norvegicus, UniProt P33535)
observation.type: pEC50
meas.value: 5.10
//
compound: CN(C)/C1=N/C[C@@H](C(N)=O)NC(=O)[C@H](Cc2ccccc2)NC(=O)CNC(=O)[C@H](NC(=O)[C@@H](N)Cc2ccc(O)cc2)CN1
tested.target: Mu-type opioid receptor (Rattus norvegicus, UniProt P33535)
observation.type: pEC50
meas.value: 5.74
//
compound: CC(C)C[C@@H]1NC(=O)[C@H](Cc2ccccc2)NC(=O)CNC(=O)[C@H](NC(=O)[C@@H](N)Cc2ccc(O)cc2)CCCNC(=S)NCCC[C@@H](C(N)=O)NC1=O
tested.target: Mu-type opioid receptor (Rattus norvegicus, UniProt P33535)
observation.type: pEC50
meas.value: 6.23
//
compound: C/N=C1/NCCC[C@@H](C(N)=O)NC(=O)[C@H](CC(C)C)NC(=O)[C@H](Cc2ccccc2)NC(=O)CNC(=O)[C@H](NC(=O)[C@@H](N)Cc2ccc(O)cc2)CCCN1
tested.target: Mu-type opioid receptor (Rattus norvegicus, UniProt P33535)
observation.type: pEC50
meas.value: 5.91
//
compound: CC(C)C[C@@H]1NC(=O)[C@H](Cc2ccccc2)NC(=O)CNC(=O)[C@H](NC(=O)[C@@H](N)Cc2ccc(O)cc2)CCCN/C(N(C)C)=N\CCC[C@@H](C(N)=O)NC1=O
tested.target: Mu-type opioid receptor (Rattus norvegicus, UniProt P33535)
observation.type: pEC50
meas.value: 5.82
//
compound: CS/C1=N/CCC[C@@H](C(N)=O)NC(=O)[C@H](CC(C)C)NC(=O)[C@H](Cc2ccccc2)NC(=O)CNC(=O)[C@H](NC(=O)[C@@H](N)Cc2ccc(O)cc2)CCCN1
tested.target: Mu-type opioid receptor (Rattus norvegicus, UniProt P33535)
observation.type: pEC50
meas.value: 6.19
